Reference source for all entries: patent US20090203737A1

Molecular target: rat mGluR5 receptor (Rattus norvegicus, UniProt P31424)
Sequence (P31424 21-1171 isoform P31424-2 limits assumed): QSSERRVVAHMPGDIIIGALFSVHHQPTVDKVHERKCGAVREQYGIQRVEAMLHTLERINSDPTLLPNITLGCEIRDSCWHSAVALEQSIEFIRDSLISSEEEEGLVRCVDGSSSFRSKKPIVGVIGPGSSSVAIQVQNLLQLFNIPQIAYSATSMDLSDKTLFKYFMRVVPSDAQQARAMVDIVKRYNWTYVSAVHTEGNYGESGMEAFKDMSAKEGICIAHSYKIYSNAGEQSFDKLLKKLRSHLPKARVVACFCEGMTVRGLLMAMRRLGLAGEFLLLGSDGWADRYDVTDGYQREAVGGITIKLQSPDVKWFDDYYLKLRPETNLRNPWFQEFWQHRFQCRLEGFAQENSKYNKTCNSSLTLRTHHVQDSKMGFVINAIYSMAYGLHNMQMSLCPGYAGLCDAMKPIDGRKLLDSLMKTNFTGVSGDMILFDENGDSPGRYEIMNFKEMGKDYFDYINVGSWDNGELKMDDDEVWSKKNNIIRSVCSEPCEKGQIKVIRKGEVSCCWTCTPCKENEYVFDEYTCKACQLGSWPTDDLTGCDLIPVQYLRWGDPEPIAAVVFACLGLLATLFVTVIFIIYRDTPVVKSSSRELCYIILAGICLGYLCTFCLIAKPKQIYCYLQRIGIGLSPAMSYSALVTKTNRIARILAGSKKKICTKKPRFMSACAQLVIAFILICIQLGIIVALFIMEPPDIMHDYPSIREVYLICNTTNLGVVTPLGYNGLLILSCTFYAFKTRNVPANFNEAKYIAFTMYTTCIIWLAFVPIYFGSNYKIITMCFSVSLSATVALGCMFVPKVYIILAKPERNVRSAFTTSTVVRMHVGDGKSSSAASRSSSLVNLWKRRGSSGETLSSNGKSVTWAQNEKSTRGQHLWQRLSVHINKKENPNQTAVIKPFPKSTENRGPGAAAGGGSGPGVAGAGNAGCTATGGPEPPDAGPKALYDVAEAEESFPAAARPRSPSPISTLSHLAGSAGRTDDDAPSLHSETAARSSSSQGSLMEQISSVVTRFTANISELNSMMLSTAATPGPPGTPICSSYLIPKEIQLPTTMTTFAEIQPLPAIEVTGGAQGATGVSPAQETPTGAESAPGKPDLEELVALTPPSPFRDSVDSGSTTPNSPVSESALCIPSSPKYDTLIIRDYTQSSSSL
Experiment: mGluR5 assay on HEK-expressing rat mGluR5 (fluorescent cell based Ca2+ mobilization assay)
Settings: HEK-293 cells stably expressing rat mGluR5; no co-addition of glutamate; mean of at least three independent experiments in duplicate; read-out: Ca++ Flux (mean EC50)
Protocol: Positive functional expression of HEK-293 cells stably expressing rat mGluR5 receptor was determined by measuring intracellular Ca^2+ changes using a Fluorometric Imaging Plate Reader (FLIPR, Molecular Devices, Sunnyvale, Calif.) in response to glutamate or selective known mGluR5 agonists and antagonists. Rat mGluR5 RT-PCR products in HEK-293 cells were sequenced and found 100% identical to rat mGluR5 Genbank reference sequence (NM_017012). […]
Items are presented alongside their recorded EC50.

>  <compound>
O=C(c1ccc(F)cc1)N1CCC(c2nc(-c3ccc[nH]3)no2)C1 (stereo not shown)

>  <EC50>
1000 to 10000 nM

$$$$
>  <compound>
O=C(c1ccc(F)cc1)N1CCCC(c2noc(-c3cc4ccccc4[nH]3)n2)C1 (stereo not shown)

>  <EC50>
1000 to 10000 nM

$$$$

Please give the measured EC50 for this compound: `Cc1c[nH]c(-c2noc([C@H]3CCCN(C(=O)c4ccc(F)nc4)C3)n2)c1`
< 1000 nM

Please give the measured EC50 for this compound: `Cc1c[nH]c(-c2noc([C@H]3CCCN(C(=O)c4ccnc(F)c4)C3)n2)c1`
< 1000 nM

###

Biological target: rat mGluR5 receptor (Rattus norvegicus, UniProt P31424)
Test: mGluR5 assay on HEK-expressing rat mGluR5 (fluorescent cell based Ca2+ mobilization assay)
Conditions: HEK-293 cells stably expressing rat mGluR5; no co-addition of glutamate; mean of at least three independent experiments in duplicate; read-out: Ca++ Flux (mean EC50)
pEC50: −log10 of the molar value.
assay_endpoint: pEC50

>  <molecule>
Cc1c[nH]c(-c2noc([C@H]3CCCN(C(=O)c4ccncc4F)C3)n2)c1 [Example 71]

>  <pEC50>
5.00 to 6.00

$$$$
>  <molecule>
Cc1cc(F)ccc1C(=O)N1CCCC(c2noc(-c3ccc[nH]3)n2)C1 (stereo not drawn) [Example 9]

>  <pEC50>
5.00 to 6.00

$$$$
>  <molecule>
O=C(c1ccc(F)c(F)c1)N1CCC[C@H](c2nc(-c3cc(F)c[nH]3)no2)C1 [Example 51]

>  <pEC50>
> 6.00

$$$$

What reported pEC50 corresponds to Cc1c[nH]c(-c2nc([C@H]3CCCN(C(=O)c4ccncc4F)C3)no2)c1 [Example 58] on rat mGluR5 receptor (Rattus norvegicus, UniProt P31424)?
> 6.00

What reported pEC50 corresponds to Cc1c[nH]c(-c2noc([C@H]3CCCN(C(=O)c4ccc(F)c(F)c4)C3)n2)n1 [Example 79] on rat mGluR5 receptor (Rattus norvegicus, UniProt P31424)?
5.00 to 6.00

What reported pEC50 corresponds to O=C(c1ccc(F)cc1F)N1CCC[C@H](c2nc(-c3ccc[nH]3)no2)C1 [Example 2] on rat mGluR5 receptor (Rattus norvegicus, UniProt P31424)?
> 6.00

What reported pEC50 corresponds to O=C(c1ccc(F)c(F)c1)N1CCC[C@H](c2noc(-c3ccc[nH]3)n2)C1 [Example 10] on rat mGluR5 receptor (Rattus norvegicus, UniProt P31424)?
> 6.00

What reported pEC50 corresponds to O=C(c1ccnc(F)c1)N1CCC[C@H](c2nc(-c3cc(Cl)c[nH]3)no2)C1 [Example 66] on rat mGluR5 receptor (Rattus norvegicus, UniProt P31424)?
5.00 to 6.00

What reported pEC50 corresponds to Cc1c[nH]c(-c2noc([C@H]3CCCN(C(=O)c4ccc(F)c(F)c4)C3)n2)c1 [Example 32] on rat mGluR5 receptor (Rattus norvegicus, UniProt P31424)?
> 6.00

###

Biological target: rat mGluR5 receptor (Rattus norvegicus, UniProt P31424)
Assay: mGluR5 assay on HEK-expressing rat mGluR5 (fluorescent cell based Ca2+ mobilization assay)
Conditions: HEK-293 cells stably expressing rat mGluR5; no co-addition of glutamate; mean of at least three independent experiments in duplicate; read-out: Ca++ Flux (mean EC50)
Items are presented alongside their recorded EC50.

Solved cases below.
>  <compound>
O=C(c1ccc(F)cc1)N1CCC[C@H](c2nc(-c3ncc[nH]3)no2)C1 [Example 24]

>  <EC50>
1 to 10 µM

$$$$
>  <compound>
Cc1c[nH]c(-c2nc([C@H]3CCCN(C(=O)c4ccnc(F)c4)C3)no2)c1 [Example 30]

>  <EC50>
< 1 µM

$$$$
>  <compound>
Cc1oncc1C(=O)N1CCCC(c2noc(-c3cc4ccccc4[nH]3)n2)C1 (stereo not shown) [Example 26]

>  <EC50>
1 to 10 µM

$$$$

Next, consider the following compound.
Please give the measured EC50 for this compound: O=C(c1ccc(F)cc1)N1CCCC(c2noc(-c3ccn[nH]3)n2)C1 (stereo not shown) [Example 13]
> 10 µM

###

Molecular target: rat mGluR5 receptor (Rattus norvegicus, UniProt P31424)
Assay: mGluR5 assay on HEK-expressing rat mGluR5 (fluorescent cell based Ca2+ mobilization assay)
Conditions: HEK-293 cells stably expressing rat mGluR5; no co-addition of glutamate; mean of at least three independent experiments in duplicate; read-out: Ca++ Flux (mean EC50)
pEC50: −log10 of the molar value.
Items are presented alongside their recorded pEC50.

Solved cases below.
>  <query_smiles>
O=C(c1ccnc(F)c1)N1CCC[C@H](c2noc(-c3cc(Cl)c[nH]3)n2)C1

>  <result>
> 6.00

$$$$
>  <query_smiles>
Cc1c[nH]c(-c2nc([C@H]3CCCN(C(=O)c4ccc(F)nc4)C3)no2)c1

>  <result>
> 6.00

$$$$
>  <query_smiles>
Cc1oncc1C(=O)N1CCC[C@H](c2nc(-c3ccc[nH]3)no2)C1

>  <result>
< 5.00

$$$$

Next, consider the following molecule.
Please give the measured pEC50 for this molecule: `O=C(c1ccc(F)c(F)c1)N1CCC[C@H](c2nc(-c3ncc[nH]3)no2)C1`
5.00 to 6.00

###

Items are presented alongside their recorded melting point.

>  <compound>
Cc1cc(F)ccc1C(=O)N1CCCC(c2noc(-c3ccc[nH]3)n2)C1 (centres unmarked)

>  <melting point>
203 °C

$$$$
>  <compound>
O=C(c1ccc(F)c(F)c1)N1CCCC(c2noc(-c3ncc[nH]3)n2)C1 (centres unmarked)

>  <melting point>
148.5 to 148.9 °C

$$$$
>  <compound>
O=C(c1ccc(F)nc1)N1CCC[C@H](c2nc(-c3ccc[nH]3)no2)C1

>  <melting point>
131 to 132 °C

$$$$
>  <compound>
O=C(c1ccc(F)nc1)N1CCC[C@H](c2noc(-c3ccc[nH]3)n2)C1

>  <melting point>
147 °C

$$$$
>  <compound>
Cc1oncc1C(=O)N1CCC[C@H](c2nc(-c3cc4ccccc4[nH]3)no2)C1

>  <melting point>
163 to 164 °C

$$$$

Please give the measured melting point for this compound: `O=C(c1ccc(F)cc1)N1CCC[C@H](c2noc(-c3cc(C(F)(F)F)c[nH]3)n2)C1`
183.5 °C

Please give the measured melting point for this compound: `N#Cc1c[nH]c(-c2nc([C@H]3CCCN(C(=O)c4ccc(F)cc4)C3)no2)c1`
204.8 to 205.6 °C

Please give the measured melting point for this compound: `Cc1c[nH]c(-c2noc([C@H]3CCCN(C(=O)c4ccc(F)cc4)C3)n2)c1`
188 to 190 °C

###

assay_endpoint: melting point (°C)

>  <compound>
O=C(c1ccc(F)cc1F)N1CCCC(c2noc(-c3ccc[nH]3)n2)C1 (centres unmarked) [Example 6]

>  <result_unit>
°C

>  <melting point>
151

$$$$
>  <compound>
O=C(c1ccc(F)cc1)N1CCCC(c2noc(-c3ccc[nH]3)n2)C1 (centres unmarked) [Example 7]

>  <result_unit>
°C

>  <melting point>
158

$$$$
>  <compound>
O=C(c1ccc(F)nc1)N1CCCC(c2noc(-c3ccc[nH]3)n2)C1 (centres unmarked) [Example 8]

>  <result_unit>
°C

>  <melting point>
143

$$$$
>  <compound>
O=C(c1ccc(F)cc1)N1CCC[C@H](c2noc(-c3ccc[nH]3)n2)C1 [Example 22]

>  <result_unit>
°C

>  <melting point>
181

$$$$
>  <compound>
O=C(c1ccc(F)c(F)c1)N1CCC[C@H](c2noc(-c3ccc[nH]3)n2)C1 [Example 10]

>  <result_unit>
°C

>  <melting point>
168

$$$$
>  <compound>
O=C(c1ccc(F)nc1)N1CCC[C@H](c2noc(-c3cc(C(F)(F)F)c[nH]3)n2)C1 [Example 78]

>  <result_unit>
°C

>  <melting point>
165.7

$$$$
>  <compound>
O=C(c1ccc(F)c(F)c1)N1CCCC(c2noc(-c3ccc[nH]3)n2)C1 (centres unmarked) [Example 5]

>  <result_unit>
°C

>  <melting point>
177

$$$$
